System: PfAP2-G AP2 domain (GST-tagged)
TEST_NAME: gcPBM binding intensity (ln(normalized median fluorescence intensity)); higher = stronger DNA binding
In all, about 25,000 sequences were measured (“ln(normalized median fluorescence intensity)”: median about 10, highest 2% from about 12 on). What follows is part of a selection rich in the highest values, with near analogues and random picks from the rest.
PROPERTY: gcPBM binding intensity (ln)
Form field (numeric): enter value without unit.

[
  {
    "RESIDUE_SEQUENCE": "AATTTTTGTATTTTTAGTACTTAATTTCAAAATAAC [XGTACX_site4234]",
    "gcPBM binding intensity (ln)": 11.2
  },
  {
    "RESIDUE_SEQUENCE": "AAAAAAAAAACATACACACACACAAATATTTATATA [CACACA_site437]",
    "gcPBM binding intensity (ln)": 9.85
  },
  {
    "RESIDUE_SEQUENCE": "GTAAGATTTCTTGTTGCATGCGGTAAAAAGTAAAAT [TGCATGCA_site469]",
    "gcPBM binding intensity (ln)": 10.6
  }
]

Consider the sequence ATAAAATATAAAAATTGTACGATAATAATAGTAGGA [XGTACX_site8951] and give its measured gcPBM binding intensity (ln). 10.8
